For each entry below, report its MIC value.
# Tested on: Helicobacter pylori
# protocolDescription: In vitro inhibition of Helicobacter pylori (broth microdilution MIC)
# cond: Helicobacter pylori, 72 h, read-out: MIC against Helicobacter pylori, strain 76 (Table 5A)
Write the answer as a number in µg/mL, unit excluded.

Query string: Lab request: please report MIC under test system Helicobacter pylori for CC[C@H]1OC(=O)[C@H](C)[C@@H](O[C@H]2C[C@@](C)(OC)[C@@H](O)[C@H](C)O2)[C@H](C)[C@@H](O[C@@H]2O[C@H](C)C[C@H](N(C)C)[C@H]2O)[C@](C)(OC)C[C@@H](C)C(=O)[C@H](C)[C@@H](O)[C@]1(C)O [Clarithromycin, reference compound]
Result string: 0.032

Query string: Lab request: please report MIC under test system Helicobacter pylori for `CCCCc1ccc(CO[C@@H]2COc3nc([N+](=O)[O-])cn3C2)cc1`
Result string: 6.25

Query string: Lab request: please report MIC under test system Helicobacter pylori for `CCCCCCCCC(=O)N[C@@H]1COc2nc([N+](=O)[O-])cn2C1`
Result string: 25

Query string: Lab request: please report MIC under test system Helicobacter pylori for `O=[N+]([O-])c1cn2c(n1)OC[C@@H](OCc1ccc(OCc3ccccc3)cc1)C2`
Result string: 3.12

Query string: Lab request: please report MIC under test system Helicobacter pylori for Cc1ncc([N+](=O)[O-])n1CCO [Metronidazole, reference compound]
Result string: 32

Query string: Lab request: please report MIC under test system Helicobacter pylori for `O=[N+]([O-])c1cn2c(n1)OC[C@@H](OCc1ccc(OC(F)(F)F)cc1)C2`
Result string: 12.5

Query string: Lab request: please report MIC under test system Helicobacter pylori for `CCCCCCCCc1ccc(CO[C@@H]2COc3nc([N+](=O)[O-])cn3C2)cc1`
Result string: 3.12

Query string: Lab request: please report MIC under test system Helicobacter pylori for CC1(C)S[C@@H]2[C@H](NC(=O)[C@H](N)c3ccc(O)cc3)C(=O)N2[C@H]1C(=O)O [Amoxicillin, reference compound]
Result string: 0.032

###

# Tested on: Helicobacter pylori
# protocolDescription: In vitro inhibition of Helicobacter pylori (broth microdilution MIC)
# cond: Helicobacter pylori, ATCC43504, 72 h, read-out: MIC against Helicobacter pylori, strain ATCC 43504 (Table 5A)
assayMetric: MIC

Query string: Lab request: please report MIC under test system Helicobacter pylori for CC[C@H]1OC(=O)[C@H](C)[C@@H](O[C@H]2C[C@@](C)(OC)[C@@H](O)[C@H](C)O2)[C@H](C)[C@@H](O[C@@H]2O[C@H](C)C[C@H](N(C)C)[C@H]2O)[C@](C)(OC)C[C@@H](C)C(=O)[C@H](C)[C@@H](O)[C@]1(C)O [Clarithromycin, reference compound]
Result string: 0.06 µg/mL

Query string: Lab request: please report MIC under test system Helicobacter pylori for Cc1ncc([N+](=O)[O-])n1CCO [Metronidazole, reference compound]
Result string: 128 µg/mL

Query string: Lab request: please report MIC under test system Helicobacter pylori for `O=C(N[C@@H]1COc2nc([N+](=O)[O-])cn2C1)c1ccc(OCc2ccccc2)cc1`
Result string: > 25 µg/mL

Query string: Lab request: please report MIC under test system Helicobacter pylori for `O=[N+]([O-])c1cn2c(n1)OC[C@@H](OCc1ccc(OCc3ccccc3)cc1)C2`
Result string: > 25 µg/mL

Query string: Lab request: please report MIC under test system Helicobacter pylori for `CCCCCCCCc1ccc(CO[C@@H]2COc3nc([N+](=O)[O-])cn3C2)cc1`
Result string: > 25 µg/mL

Query string: Lab request: please report MIC under test system Helicobacter pylori for `CCCCc1ccc(CO[C@@H]2COc3nc([N+](=O)[O-])cn3C2)cc1`
Result string: > 25 µg/mL

Query string: Lab request: please report MIC under test system Helicobacter pylori for CC1(C)S[C@@H]2[C@H](NC(=O)[C@H](N)c3ccc(O)cc3)C(=O)N2[C@H]1C(=O)O [Amoxicillin, reference compound]
Result string: 0.06 µg/mL

Query string: Lab request: please report MIC under test system Helicobacter pylori for `CCCCCCCCC(=O)N[C@@H]1COc2nc([N+](=O)[O-])cn2C1`
Result string: > 25 µg/mL

Query string: Lab request: please report MIC under test system Helicobacter pylori for `O=[N+]([O-])c1cn2c(n1)OC[C@@H](OCc1ccc(OC(F)(F)F)cc1)C2`
Result string: > 25 µg/mL

###

# System: Helicobacter pylori
# protocolDescription: In vitro inhibition of Helicobacter pylori (broth microdilution MIC)
# cond: Helicobacter pylori, 72 h, read-out: MIC against Helicobacter pylori, strain 40 (Table 5A)
For each entry below, report its MIC value.
Write the answer as a number in µg/mL, unit excluded.

Query string: Lab request: please report MIC under test system Helicobacter pylori for O=[N+]([O-])c1cn2c(n1)OC[C@@H](OCc1ccc(OC(F)(F)F)cc1)C2 [PA-824]
Result string: 0.4

Query string: Lab request: please report MIC under test system Helicobacter pylori for CCCCCCCCc1ccc(CO[C@@H]2COc3nc([N+](=O)[O-])cn3C2)cc1 [PA-1142]
Result string: 1.5

Query string: Lab request: please report MIC under test system Helicobacter pylori for CC[C@H]1OC(=O)[C@H](C)[C@@H](O[C@H]2C[C@@](C)(OC)[C@@H](O)[C@H](C)O2)[C@H](C)[C@@H](O[C@@H]2O[C@H](C)C[C@H](N(C)C)[C@H]2O)[C@](C)(OC)C[C@@H](C)C(=O)[C@H](C)[C@@H](O)[C@]1(C)O [Clarithromycin, reference compound]
Result string: 0.016

Query string: Lab request: please report MIC under test system Helicobacter pylori for CCCCc1ccc(CO[C@@H]2COc3nc([N+](=O)[O-])cn3C2)cc1 [PA-822]
Result string: 0.2

Query string: Lab request: please report MIC under test system Helicobacter pylori for O=[N+]([O-])c1cn2c(n1)OC[C@@H](OCc1ccc(OCc3ccccc3)cc1)C2 [PA-647]
Result string: 0.4

Query string: Lab request: please report MIC under test system Helicobacter pylori for CCCCCCCCC(=O)N[C@@H]1COc2nc([N+](=O)[O-])cn2C1 [PA-1139]
Result string: 0.8

Query string: Lab request: please report MIC under test system Helicobacter pylori for O=C(N[C@@H]1COc2nc([N+](=O)[O-])cn2C1)c1ccc(OCc2ccccc2)cc1 [PA-1125]
Result string: 1.5

Query string: Lab request: please report MIC under test system Helicobacter pylori for CC1(C)S[C@@H]2[C@H](NC(=O)[C@H](N)c3ccc(O)cc3)C(=O)N2[C@H]1C(=O)O [Amoxicillin, reference compound]
Result string: 0.032

Query string: Lab request: please report MIC under test system Helicobacter pylori for Cc1ncc([N+](=O)[O-])n1CCO [Metronidazole, reference compound]
Result string: 0.25

###

# Tested on: Mycobacterium bovis (rBCG-lux)
# protocolDescription: microbe, parasite or virus in culture
# Assay type: cell-based, Mycobacterium bovis bacille Calmette Guerin
# cond: Mycobacterium tuberculosis variant bovis, 72 h; read-out: % of control, measured in RLUs
assayMetric: activity at 1.25 µg/mL (%)
Write the answer as a number in %, unit excluded.

Query string: Given O=[N+]([O-])c1cn2c(n1)OC[C@@H](OCc1ccc(OC(F)(F)F)cc1)C2 [PA-824] , state its recorded activity at 1.25 µg/mL.
Result string: 0.3

Query string: Given NCC[C@H](O)C(=O)N[C@@H]1C[C@H](N)[C@@H](O[C@H]2O[C@H](CN)[C@@H](O)[C@H](O)[C@H]2O)[C@H](O)[C@H]1O[C@H]1O[C@H](CO)[C@@H](O)[C@H](N)[C@H]1O [Amikacin] , state its recorded activity at 1.25 µg/mL.
Result string: 18.1

Query string: Given NNC(=O)c1ccncc1 [Isoniazid, reference compound] , state its recorded activity at 1.25 µg/mL.
Result string: 51.1

Query string: Given CC[C@@H](CO)NCCN[C@@H](CC)CO [Ethambutol] , state its recorded activity at 1.25 µg/mL.
Result string: 148

Query string: Given [H]/N=C(/N)N[C@H]1[C@H](O)[C@@H](O)[C@H](O[C@@H]2O[C@@H](C)[C@](O)(C=O)[C@H]2O[C@@H]2O[C@@H](CO)[C@H](O)[C@@H](O)[C@@H]2NC)[C@@H](N/C(N)=N\[H])[C@@H]1O [Streptomycin] , state its recorded activity at 1.25 µg/mL.
Result string: 11.7

###

For each entry below, report its MIC value.
# Test system: Helicobacter pylori
# protocolDescription: In vitro inhibition of Helicobacter pylori (broth microdilution MIC)
# cond: Helicobacter pylori, 72 h, read-out: MIC against Helicobacter pylori, strain 17 (Table 5A)
Write the answer as a number in µg/mL, unit excluded.

Query string: Lab request: please report MIC under test system Helicobacter pylori for Cc1ncc([N+](=O)[O-])n1CCO [Metronidazole, reference compound]
Result string: 32

Query string: Lab request: please report MIC under test system Helicobacter pylori for `CCCCc1ccc(CO[C@@H]2COc3nc([N+](=O)[O-])cn3C2)cc1`
Result string: 25

Query string: Lab request: please report MIC under test system Helicobacter pylori for CC[C@H]1OC(=O)[C@H](C)[C@@H](O[C@H]2C[C@@](C)(OC)[C@@H](O)[C@H](C)O2)[C@H](C)[C@@H](O[C@@H]2O[C@H](C)C[C@H](N(C)C)[C@H]2O)[C@](C)(OC)C[C@@H](C)C(=O)[C@H](C)[C@@H](O)[C@]1(C)O [Clarithromycin, reference compound]
Result string: 0.016

Query string: Lab request: please report MIC under test system Helicobacter pylori for CC1(C)S[C@@H]2[C@H](NC(=O)[C@H](N)c3ccc(O)cc3)C(=O)N2[C@H]1C(=O)O [Amoxicillin, reference compound]
Result string: 0.016
